The values you see were collected from paper PMC3532212.

experiment: Plasma concentrations in repeat-dosing study, satellite rats; type: in vivo, rat; conditions: male, Sprague Dawley, rat, plasma, po, 1.5 mg/kg/day, FTY720 1.5 mg/kg/d p.o., Terminal (last day), 8 hr post-dose, mean±SEM
outcomeMeasure: concentration at 8 h (µM)
# number only, unit µM dropped from output

Entry CCCCCCCCc1ccc(CCC(N)(CO)CO)cc1 [FTY720] needs its concentration at 8 h filled in; supply it.
0.081

* * *

test: Plasma concentrations in repeat-dosing study, satellite rats; assay type: in vivo, rat; details: male, Sprague Dawley, rat, plasma, po, 0.3 mg/kg/day, BAF312 0.3 mg/kg/d p.o., Terminal (last day), 24 hr post-dose, mean±SEM
outcomeMeasure: concentration at 24 h
Number first, unit second: that is the form wanted.

Entry CCc1cc(/C(C)=N/OCc2ccc(C3CCCCC3)c(C(F)(F)F)c2)ccc1CN1CC(C(=O)O)C1 [BAF312] needs its concentration at 24 h filled in; supply it.
13 nM

* * *

biological target: Human S1P1 (Homo sapiens, UniProt P21453); experiment: B arrestin recruitment assay, Tango EDG1-bla U2OS cells; conditions: 18 hours agonist incubation
Sequence (P21453 whole entry): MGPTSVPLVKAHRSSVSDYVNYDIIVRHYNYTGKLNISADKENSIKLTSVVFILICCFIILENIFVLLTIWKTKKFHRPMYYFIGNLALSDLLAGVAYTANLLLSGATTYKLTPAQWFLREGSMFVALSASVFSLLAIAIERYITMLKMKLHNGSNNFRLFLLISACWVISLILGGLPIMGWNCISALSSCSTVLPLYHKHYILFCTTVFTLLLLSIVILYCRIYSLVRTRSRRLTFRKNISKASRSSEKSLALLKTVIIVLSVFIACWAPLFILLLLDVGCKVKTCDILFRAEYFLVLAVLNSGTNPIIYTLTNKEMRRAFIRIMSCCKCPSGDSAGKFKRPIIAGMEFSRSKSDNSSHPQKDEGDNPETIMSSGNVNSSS
outcomeMeasure: EC50

Entry `CCc1cc(/C(C)=N/OCc2ccc(C3CCCCC3)c(C(F)(F)F)c2)ccc1CN1CC(C(=O)O)C1` needs its EC50 filled in; supply it.
2.5 nM

* * *

test: Plasma concentrations during escalating i.v. infusion in anesthetized rats; type: in vivo; settings: male, Sprague Dawley, plasma, iv; anesthetized rat, BAF312 i.v., end of 1.5 mg/kg/20 min infusion
outcomeMeasure: concentration at 40 min (µM)
# number only, unit µM dropped from output

Entry `CCc1cc(/C(C)=N/OCc2ccc(C3CCCCC3)c(C(F)(F)F)c2)ccc1CN1CC(C(=O)O)C1` needs its concentration at 40 min filled in; supply it.
3.23

* * *

test: Plasma concentrations after a single oral dose in rats; type: in vivo; conditions: male, Sprague Dawley, plasma; rat, FTY720 3.0 mg/kg single oral dose, 48 hr post-dose, mean±SEM
outcomeMeasure: concentration at 48 h (µM)
# number only, unit µM dropped from output

Entry `CCCCCCCCc1ccc(CCC(N)(CO)CO)cc1` needs its concentration at 48 h filled in; supply it.
0.053

* * *

test: Plasma concentrations after a single oral dose in rats; assay type: in vivo; settings: male, Sprague Dawley, plasma; rat, FTY720 10.0 mg/kg single oral dose, 24 hr post-dose, mean±SEM
outcomeMeasure: concentration at 24 h (nM)
# number only, unit nM dropped from output

Entry CCCCCCCCc1ccc(CCC(N)(CO)CO)cc1 [FTY720] needs its concentration at 24 h filled in; supply it.
301

* * *

experiment: Plasma concentrations in repeat-dosing study, satellite rats; type: in vivo, rat; conditions: male, Sprague Dawley, rat, plasma, po, 1.5 mg/kg/day, rat, FTY720 1.5 mg/kg/d p.o., Day 1, 24 hr post-dose, mean±SEM
outcomeMeasure: concentration at 24 h

Entry `CCCCCCCCc1ccc(CCC(N)(CO)CO)cc1` needs its concentration at 24 h filled in; supply it.
34 nM

* * *

assay: Plasma concentrations after a single oral dose in rats; format: in vivo; conditions: male, Sprague Dawley, plasma; rat, FTY720 1.0 mg/kg single oral dose, 4 hr post-dose, mean±SEM
outcomeMeasure: concentration at 4 hr (nM)
# number only, unit nM dropped from output

Entry `CCCCCCCCc1ccc(CCC(N)(CO)CO)cc1` needs its concentration at 4 hr filled in; supply it.
25

* * *

assay: Plasma concentrations after a single oral dose in rats; type: in vivo; settings: male, Sprague Dawley, plasma; rat, FTY720 0.3 mg/kg single oral dose, 4 hr post-dose, mean±SEM
outcomeMeasure: concentration at 4 hr (nM)
# number only, unit nM dropped from output

Entry CCCCCCCCc1ccc(CCC(N)(CO)CO)cc1 [FTY720] needs its concentration at 4 hr filled in; supply it.
10

* * *

assay: Plasma concentrations in repeat-dosing study, satellite rats; type: in vivo, rat; conditions: male, Sprague Dawley, rat, plasma, po, 5 mg/kg/day, FTY720 5.0 mg/kg/d p.o., Terminal (last day), 0-hr, mean±SEM
outcomeMeasure: concentration at 0 h

Entry CCCCCCCCc1ccc(CCC(N)(CO)CO)cc1 [FTY720] needs its concentration at 0 h filled in; supply it.
207 nM

* * *

assay: Plasma concentrations in repeat-dosing study, satellite rats; assay type: in vivo, rat; conditions: male, Sprague Dawley, rat, plasma, po, 30 mg/kg/day, BAF312 30.0 mg/kg/d p.o., Terminal (last day), 4 hr post-dose, mean±SEM
outcomeMeasure: concentration at 4 h
Number first, unit second: that is the form wanted.

Entry CCc1cc(/C(C)=N/OCc2ccc(C3CCCCC3)c(C(F)(F)F)c2)ccc1CN1CC(C(=O)O)C1 [BAF312] needs its concentration at 4 h filled in; supply it.
8.33 µM

* * *

assay: Plasma concentrations in repeat-dosing study, satellite rats; type: in vivo, rat; details: male, Sprague Dawley, rat, plasma, po, 3 mg/kg/day, BAF312 3.0 mg/kg/d p.o., Terminal (last day), 24 hr post-dose, mean±SEM
outcomeMeasure: concentration at 24 h (nM)
# number only, unit nM dropped from output

Entry `CCc1cc(/C(C)=N/OCc2ccc(C3CCCCC3)c(C(F)(F)F)c2)ccc1CN1CC(C(=O)O)C1` needs its concentration at 24 h filled in; supply it.
98

* * *

experiment: Plasma concentrations in repeat-dosing study, satellite rats; assay type: in vivo, rat; details: male, Sprague Dawley, rat, plasma, po, 30 mg/kg/day, BAF312 30.0 mg/kg/d p.o., Terminal (last day), 24 hr post-dose, mean±SEM
outcomeMeasure: concentration at 24 h (nM)
# number only, unit nM dropped from output

Entry `CCc1cc(/C(C)=N/OCc2ccc(C3CCCCC3)c(C(F)(F)F)c2)ccc1CN1CC(C(=O)O)C1` needs its concentration at 24 h filled in; supply it.
942

* * *

assay: Plasma concentrations in repeat-dosing study, satellite rats; assay type: in vivo, rat; conditions: male, Sprague Dawley, rat, plasma, po, 0.5 mg/kg/day, FTY720 0.5 mg/kg/d p.o., Terminal (last day), 4 hr post-dose, mean±SEM
outcomeMeasure: concentration at 4 h (nM)
# number only, unit nM dropped from output

Entry CCCCCCCCc1ccc(CCC(N)(CO)CO)cc1 [FTY720] needs its concentration at 4 h filled in; supply it.
24

* * *

experiment: Plasma concentrations during escalating i.v. infusion in anesthetized rats; assay type: in vivo; conditions: male, Sprague Dawley, plasma, iv; anesthetized rat, BAF312 i.v., end of 60-min post-treatment period
outcomeMeasure: concentration at 120 min (nM)
# number only, unit nM dropped from output

Entry `CCc1cc(/C(C)=N/OCc2ccc(C3CCCCC3)c(C(F)(F)F)c2)ccc1CN1CC(C(=O)O)C1` needs its concentration at 120 min filled in; supply it.
2820

* * *

For each record, write down the corresponding EC50.
target: human S1P4 (Homo sapiens); assay: B arrestin recruitment assay, Tango EDG6-bla U2OS cells; conditions: B arrestin, 18 hours agonist incubation
Sequence (O95977 whole entry): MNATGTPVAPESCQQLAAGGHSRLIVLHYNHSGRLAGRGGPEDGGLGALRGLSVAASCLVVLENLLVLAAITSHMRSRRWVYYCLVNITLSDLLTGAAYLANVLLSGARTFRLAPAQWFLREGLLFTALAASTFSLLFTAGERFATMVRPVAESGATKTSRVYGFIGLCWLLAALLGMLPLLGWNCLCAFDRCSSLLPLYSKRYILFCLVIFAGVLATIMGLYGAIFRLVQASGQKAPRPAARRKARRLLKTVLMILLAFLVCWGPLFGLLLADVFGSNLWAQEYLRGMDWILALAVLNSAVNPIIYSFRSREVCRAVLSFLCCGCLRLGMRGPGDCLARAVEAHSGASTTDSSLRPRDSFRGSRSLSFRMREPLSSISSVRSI
# number only, unit nM dropped from output

Entry `CCc1cc(/C(C)=N/OCc2ccc(C3CCCCC3)c(C(F)(F)F)c2)ccc1CN1CC(C(=O)O)C1` needs its EC50 filled in; supply it.
245

Entry `CCCCCCCCc1ccc(CC[C@](N)(CO)COP(=O)(O)O)cc1` needs its EC50 filled in; supply it.
26

* * *

assay: Plasma concentrations during escalating i.v. infusion in anesthetized rats; assay type: in vivo; settings: male, Sprague Dawley, plasma, iv; anesthetized rat, FTY720 i.v., end of 1.0 mg/kg/20 min infusion
outcomeMeasure: concentration at 60 min (nM)
# number only, unit nM dropped from output

Entry `CCCCCCCCc1ccc(CCC(N)(CO)CO)cc1` needs its concentration at 60 min filled in; supply it.
375

* * *

test: Plasma concentrations in repeat-dosing study, satellite rats; format: in vivo, rat; details: male, Sprague Dawley, rat, plasma, po, 3 mg/kg/day, BAF312 3.0 mg/kg/d p.o., Terminal (last day), 8 hr post-dose, mean±SEM
outcomeMeasure: concentration at 8 h (nM)
# number only, unit nM dropped from output

Entry `CCc1cc(/C(C)=N/OCc2ccc(C3CCCCC3)c(C(F)(F)F)c2)ccc1CN1CC(C(=O)O)C1` needs its concentration at 8 h filled in; supply it.
480

* * *

assay: Plasma concentrations after a single oral dose in rats; type: in vivo; conditions: male, Sprague Dawley, plasma; rat, FTY720 1.0 mg/kg single oral dose, 48 hr post-dose, mean±SEM
outcomeMeasure: concentration at 48 h

Entry CCCCCCCCc1ccc(CCC(N)(CO)CO)cc1 [FTY720] needs its concentration at 48 h filled in; supply it.
12 nM

* * *

experiment: Plasma concentrations in repeat-dosing study, satellite rats; type: in vivo, rat; settings: male, Sprague Dawley, rat, plasma, po, 5 mg/kg/day, FTY720 5.0 mg/kg/d p.o., Terminal (last day), 24 hr post-dose, mean±SEM
outcomeMeasure: concentration at 24 h (nM)
# number only, unit nM dropped from output

Entry `CCCCCCCCc1ccc(CCC(N)(CO)CO)cc1` needs its concentration at 24 h filled in; supply it.
134
